measured.target: hsMTAP (Homo sapiens)
Sequence (Q13126 whole entry): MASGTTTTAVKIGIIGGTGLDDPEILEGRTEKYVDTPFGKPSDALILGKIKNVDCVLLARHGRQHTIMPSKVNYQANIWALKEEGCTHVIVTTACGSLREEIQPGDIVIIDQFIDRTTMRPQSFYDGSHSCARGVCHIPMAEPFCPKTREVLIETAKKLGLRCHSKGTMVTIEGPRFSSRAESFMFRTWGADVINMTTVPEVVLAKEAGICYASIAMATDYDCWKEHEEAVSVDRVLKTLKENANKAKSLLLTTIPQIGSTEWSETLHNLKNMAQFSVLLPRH
assay.method.text: Ki* by 2AMTA fluorescence-based assay, Morrison fit, hsMTAP
Type: biochemical
setup.conditions: read-out: Ki∗ measured, 1–3 mM 2AMTA as substrate, slow-onset tight-binding, Morrison equation
For each entry below, report its Ki value.
The answer is to be given in nM; state only the numeric part.

Query string: Which Ki is listed for CSCC1NC(c2c[nH]c3c(N)ncnc23)[C@@H](O)[C@H]1O (stereo partly drawn) [MT-ImmA, Methylthio-Immucillin-A] ?
Result string: 0.33

Query string: Which Ki is listed for Nc1ncnc2c(CN3CC(CSc4ccc(Cl)cc4)[C@H](O)C3)c[nH]c12 (stereo partly drawn) [pCl-PhT-DADMe-ImmA, pCl-PhT-DADMe-Immucillin-A] ?
Result string: 0.047

Query string: Which Ki is listed for CSC[C@H]1CN(Cc2c[nH]c3c(N)ncnc23)C[C@@H]1O [MT-DADMe-ImmA, Methylthio-DADMe-Immucillin-A] ?
Result string: 0.063

###

measured.target: hpMTAN (Helicobacter pylori, UniProt Q9ZMY2)
Sequence (Q9ZMY2 whole entry): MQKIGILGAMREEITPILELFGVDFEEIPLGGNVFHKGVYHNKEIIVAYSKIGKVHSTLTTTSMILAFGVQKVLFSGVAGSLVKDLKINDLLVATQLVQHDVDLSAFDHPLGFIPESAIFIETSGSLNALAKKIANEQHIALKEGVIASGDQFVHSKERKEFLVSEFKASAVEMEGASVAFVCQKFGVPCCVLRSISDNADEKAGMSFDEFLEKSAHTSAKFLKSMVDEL
assay.method.text: Ki* by 2AMTA fluorescence-based assay, Morrison fit, hpMTAN
Format: biochemical
setup.conditions: read-out: Ki∗ measured, 1–3 mM 2AMTA as substrate, slow-onset tight-binding, Morrison equation
readout.name: Ki (nM)
The answer is to be given in nM; state only the numeric part.

Query string: Which measured Ki belongs to Nc1ncnc2c(CN3CC(CSc4ccc(Cl)cc4)[C@H](O)C3)c[nH]c12 (stereo partly drawn) , tested on hpMTAN (Helicobacter pylori, UniProt Q9ZMY2)?
Result string: 0.36

Query string: Which measured Ki belongs to `CSC[C@H]1CN(Cc2c[nH]c3c(N)ncnc23)C[C@@H]1O` , tested on hpMTAN (Helicobacter pylori, UniProt Q9ZMY2)?
Result string: 0.015

Query string: Which measured Ki belongs to CSCC1NC(c2c[nH]c3c(N)ncnc23)[C@@H](O)[C@H]1O (stereo partly drawn) , tested on hpMTAN (Helicobacter pylori, UniProt Q9ZMY2)?
Result string: 0.066
